// pEC50 lookup, one value per entry
Biological target: Induced myeloid leukemia cell differentiation protein Mcl-1 (Homo sapiens)
Sequence (Q07820 whole entry): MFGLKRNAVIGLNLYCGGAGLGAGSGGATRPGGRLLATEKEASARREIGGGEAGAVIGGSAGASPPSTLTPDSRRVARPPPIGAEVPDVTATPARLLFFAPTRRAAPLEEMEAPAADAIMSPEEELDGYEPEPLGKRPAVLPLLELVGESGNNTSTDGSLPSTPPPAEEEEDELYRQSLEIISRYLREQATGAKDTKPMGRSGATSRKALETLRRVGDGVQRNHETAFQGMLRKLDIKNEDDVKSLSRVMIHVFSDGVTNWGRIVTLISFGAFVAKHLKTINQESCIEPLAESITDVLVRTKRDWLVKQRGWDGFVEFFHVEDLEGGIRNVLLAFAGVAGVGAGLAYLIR
Assay: modulators of Bim peptide binding to Mcl-1, dose response, biochemical, bead-based flow cytometry, multiplexed, human (AID 1329)
Conditions: inactive by the depositor's call
Please express pEC50 as -log10 of the molar concentration.

For orientation, consider the following solved cases.
molecular.string: Cc1ccnc(Nc2nc(-c3c(C)nc4sccn34)cs2)c1
pEC50: 4.78
--
molecular.string: CN(N=Cc1cccnc1)C1=NS(=O)(=O)c2ccccc21
pEC50: 4.69
--
molecular.string: COc1ccc(C2=Nn3c(nnc3-c3ccco3)SC2)cc1OC
pEC50: 5.53
--
molecular.string: CN1CCN(C2=C(Cl)C(=O)C(c3cnc(N4CCCCC4)s3)=C(Cl)C2=O)CC1
pEC50: 6.15
--
molecular.string: O=C(/C=C\c1ccc(-c2ccccc2)o1)c1ccccc1
pEC50: 4.68

pEC50 for "Cc1cc(C)nc(SCc2cc(=O)c(OC(=O)c3ccc(Cl)c([N+](=O)[O-])c3)co2)n1" is 5.23

// recorded pEC50 for "Cc1ccnc(SCc2cc(=O)c(OC(=O)c3ccc(Cl)c([N+](=O)[O-])c3)co2)n1" : 4.40
